Origin of values: a melting point compilation (Tetko et al.; mined from patent text by program, amines drawn as free bases though some values may be those of a salt)

readout_label: melting point

INSERT INTO assay_data (molecule, readout_label, result) VALUES
  ('CCOC(=O)c1cn(CC)c2nc(C=O)c(OCC)cc2c1=O', 'melting point', '169 to 170 °C'),
  ('Cc1ccc(NC(=O)C(CS)Cc2ccccc2)c(C)c1C(=O)O (stereo not drawn)', 'melting point', '180 to 181 °C'),
  ('CC(C)=NOc1cc(OCc2ccccc2)ccc1C#N', 'melting point', '102 °C'),
  ('CCN1C(=O)CNCc2cc(OC)c([N+](=O)[O-])cc21', 'melting point', '132 to 134 °C'),
  ('COC(=O)c1ccc(OCCCN(C(=O)c2ccc(C(C)(C)C)cc2)c2ccc(Cl)cc2)cc1', 'melting point', '201 to 203 °C'),
  ('NC(=O)c1ccc2[nH]cc(CCN3C(=O)c4ccccc4C3=O)c2c1', 'melting point', '254 to 256 °C'),
  ('Cc1cc(-c2nnn(C)n2)cc(C)c1OCCCC(N)=O', 'melting point', '155 to 156 °C'),
  ('COc1cc2ncc(O[C@H]3CC[C@H](C(=O)O)CC3)nc2cc1OC', 'melting point', '90 to 93 °C'),
  ('COc1cc(C(C)=O)ccc1OCCN1C2CCC1CC(c1n[nH]c3cc(F)ccc13)C2 (stereo not drawn)', 'melting point', '151 to 152 °C'),
  ('CS(=O)(=O)N=c1oc2ccccc2o1', 'melting point', '161 to 163 °C'),
  ('COCCC1(C(=O)N[C@@H](Cc2ccc(NC(=O)c3cc(C#N)ccc3Cl)cc2)C(=O)OC)CCCC1', 'melting point', '172 to 175 °C'),
  ('COc1cc(OC)c2c(=O)[nH]c(-c3cc(C)c(OCCN4CCCC4)c(C)c3)nc2c1', 'melting point', '181 to 183 °C'),
  ('[N-]=[N+]=NC[C@@H]1CN(c2cc(F)c(N3CNC(=O)C3)c(F)c2)C(=O)O1', 'melting point', '186 to 188 °C'),
  ('Cc1cc(C(Cl)=NNc2ccccc2)ccc1[N+](=O)[O-]', 'melting point', '146 to 148 °C'),
  ('CON(C)C(=O)c1cccc(-c2nc3sccn3c2-c2ccnc(N[C@@H]3CCCN(S(=O)(=O)c4ccc(Cl)cc4)C3)n2)c1', 'melting point', '114 to 115 °C'),
  ('COc1cc(C)c(CC(=O)O)cc1C(C)C', 'melting point', '107 to 109 °C'),
  ('Cc1ccccc1[C@@H](CCC(=O)O)Oc1cc(OCc2ccsc2)ccc1[N+](=O)[O-]', 'melting point', '130 to 131 °C'),
  ('COc1ccc(CN2C(=O)C3(COc4cc(O)c(C#N)cc43)c3ccccc32)cc1 (stereo not drawn)', 'melting point', '112 to 114 °C'),
  ('COc1cc(Cl)c(CCNCC(O)c2ccccc2)cc1OC (stereo not drawn)', 'melting point', '110 to 113 °C'),
  ('COc1ccc2c(c1)CCC1=C2CCC2(C)C(=O)CCC12 (stereo not drawn)', 'melting point', '110 to 120 °C'),
  ('COC(=O)CCCNC(=O)CNS(=O)(=O)c1ccc2ccccc2c1', 'melting point', '187 to 189 °C'),
  ('C=C(F)C(F)(F)n1ncc(-c2ccc(S(N)(=O)=O)cc2)c(-c2ccc(F)cc2)c1=O', 'melting point', '230 to 232 °C'),
  ('CCCCCCCCCCC1SCCCN1C(=S)Nc1cccc(Cl)c1 (stereo not drawn)', 'melting point', '63 to 65 °C'),
  ('CN1CCC(c2nn(-c3ccccc3C(F)(F)F)c3ccccc23)CC1', 'melting point', '110 to 111 °C'),
  ('O=C(O)c1ccc(S(=O)(=O)Oc2c(Br)cc(-c3ccc(-c4c(Cc5ccccc5)sc5ccccc45)cc3)cc2Br)cc1O', 'melting point', '192 to 194 °C'),
  ('CCOC(=O)Nc1ccc2sc(C)cc(=O)c2c1', 'melting point', '219 to 220 °C'),
  ('COc1c(NC(=O)c2ccc(C)c(-n3cc(C(=O)Cl)nn3)c2)cc(C(C)(C)C)cc1NS(C)(=O)=O', 'melting point', '205 to 207 °C'),
  ('C=CCOc1cc(C(=O)O)cc(N)c1C(=O)c1ccccc1', 'melting point', '206 to 208 °C'),
  ('Fc1cccc(F)c1C1=NC(c2ccc(I)cc2)CO1 (stereo not drawn)', 'melting point', '105 to 106 °C'),
  ('Cc1cc(CCCCCOc2ccc(-c3nccs3)cc2)on1', 'melting point', '78 to 80 °C'),
  ('O=c1[nH]c(=O)n(C2CC(F)C(CF)O2)cc1C=CBr (stereo not drawn)', 'melting point', '177 to 180 °C'),
  ('CC(=O)Cc1ccc(-n2ccnc2)cc1', 'melting point', '71.5 to 72.5 °C'),
  ('CCOC(=O)C1CCN(c2ccc(N)cc2C#N)CC1', 'melting point', '98 °C');
